- TARGET: human GCG receptor (human, UniProt P47871 26-477)
- Sequence (P47871 26-477): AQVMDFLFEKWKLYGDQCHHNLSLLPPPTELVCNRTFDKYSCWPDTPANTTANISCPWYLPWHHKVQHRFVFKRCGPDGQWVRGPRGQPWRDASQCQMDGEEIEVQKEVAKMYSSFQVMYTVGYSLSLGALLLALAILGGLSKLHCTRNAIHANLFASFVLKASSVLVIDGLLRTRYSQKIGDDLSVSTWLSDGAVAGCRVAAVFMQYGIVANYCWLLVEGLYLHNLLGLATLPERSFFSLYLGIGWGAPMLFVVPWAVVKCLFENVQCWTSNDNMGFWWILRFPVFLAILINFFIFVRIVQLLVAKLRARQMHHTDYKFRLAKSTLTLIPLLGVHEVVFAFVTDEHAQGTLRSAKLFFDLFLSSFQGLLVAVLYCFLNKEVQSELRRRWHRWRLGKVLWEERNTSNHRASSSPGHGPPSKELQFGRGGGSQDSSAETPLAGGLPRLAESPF
- TEST_NAME: cell-based or functional assay
Positions of bridges follow the written chain, without caps; N, C: chain ends. Non-standard residues stand in square brackets, D forms with d. No end group written: not given here. *: point of attachment. Acetyl(2-(4-imidazolyl)) = O=C(Cc1c[nH]cn1)*; Aib = CC(C)(N)C(=O)O
MEASURE_NAME: In vitro activity (%) compared with native peptide: vs Glucagon
Numbers only, in %.

Below: 6 binders and their reported In vitro activity (%) compared with native peptide: vs Glucagon.
BINDER	UNIT_STRING	OBSERVED
Y[Aib]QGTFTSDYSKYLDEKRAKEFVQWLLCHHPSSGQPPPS (bridge 16-20; not fully specified) [triple agonist of SEQ ID NO: 95]	%	0.4
Y[Aib]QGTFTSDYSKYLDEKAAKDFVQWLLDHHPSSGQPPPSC (bridge 16-20; not fully specified) [triple agonist of SEQ ID NO: 77]	%	12.2
Y[Aib]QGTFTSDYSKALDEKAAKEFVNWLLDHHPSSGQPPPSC (bridge 16-20; not fully specified) [triple agonist of SEQ ID NO: 98]	%	8.2
H[Aib]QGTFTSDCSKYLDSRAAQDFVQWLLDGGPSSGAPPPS (not fully specified) [triple agonist of SEQ ID NO: 26]	%	0.2
{Acetyl(2-(4-imidazolyl))}-[Aib]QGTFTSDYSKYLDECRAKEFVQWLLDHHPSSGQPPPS (bridge 15-19; not fully specified) [triple agonist of SEQ ID NO: 73]	%	5.4
Y[Aib]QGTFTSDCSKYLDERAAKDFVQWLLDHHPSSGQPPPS (bridge 16-20; not fully specified) [triple agonist of SEQ ID NO: 72]	%	1

Below are some binders; for each one, tell me its In vitro activity (%) compared with native peptide: vs Glucagon.
1. Y[Aib]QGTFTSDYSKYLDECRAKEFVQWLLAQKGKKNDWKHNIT (bridge 16-20; not fully specified) [triple agonist of SEQ ID NO: 23]
2. Y[Aib]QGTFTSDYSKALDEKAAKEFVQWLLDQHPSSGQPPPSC (bridge 16-20) [triple agonist of SEQ ID NO: 100]
3. H[Aib]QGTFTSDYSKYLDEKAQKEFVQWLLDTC (bridge 16-20; not fully specified) [triple agonist of SEQ ID NO: 30]
4. H[Aib]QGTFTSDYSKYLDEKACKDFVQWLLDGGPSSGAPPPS (bridge 16-20; not fully specified) [triple agonist of SEQ ID NO: 32]
5. H[Aib]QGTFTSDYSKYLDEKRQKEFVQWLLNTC (bridge 16-20; not fully specified) [triple agonist of SEQ ID NO: 51]
6. Y[Aib]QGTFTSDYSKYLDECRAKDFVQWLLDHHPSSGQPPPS (bridge 16-20; not fully specified) [triple agonist of SEQ ID NO: 66]
7. H[Aib]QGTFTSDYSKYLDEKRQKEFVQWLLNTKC (bridge 16-20; not fully specified) [triple agonist of SEQ ID NO: 58]
8. H[Aib]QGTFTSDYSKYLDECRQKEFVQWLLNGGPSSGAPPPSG (bridge 16-20) [triple agonist of SEQ ID NO: 37]

1: 9.3; 2: 12.7; 3: 0.7; 4: 1.7; 5: 2; 6: 172; 7: 2.6; 8: 6.21
